# Tested on: U2OS
# Experimental details: Multiplex assay against U2OS
# Type: toxicity, cell-based
# Experimental setup: human, 48 h, 10 µM, compound concentration 10 uM, replicate 2
Measure name: Population Mitochondria Different-Phenotype (%)
The reply should be a number in %, with the unit left off.

Check out these entries, answers already filled in.
Compound: c1cc(OCCCN2CCCCC2)ccc1CN1CCCCC1 [JNJ-5207852]
Test value: 2
--
Compound: CCCn1c(=O)c2[nH]c(C3CCCC3)nc2n(CCC)c1=O
Test value: 3
--
Compound: CN(C)c1ccnc2sc3c(=O)n(N4CCCCCC4)cnc3c12
Test value: 19
--
Compound: O=C(NCCO)c1cccc(-c2cc(Nc3ccc(OC(F)(F)F)cc3)ncn2)c1
Test value: 7
--
Compound: C[C@H](NC(=O)c1c(C(F)F)nn(C)c1Oc1cccc(C(F)(F)F)c1)c1ccc(C(=O)O)cc1 [PALUPIPRANT]
Test value: 1
--
Compound: CC[C@H]1OC(=O)[C@H](C)[C@@H](O[C@H]2C[C@@](C)(OC)[C@@H](O)[C@H](C)O2)[C@H](C)[C@@H](O[C@@H]2O[C@H](C)C[C@H](N(C)C)[C@H]2O)[C@@]2(C)CC(C)=C(O2)[C@H](C)[C@@H](O)[C@]1(C)O
Test value: 81

I am curious: what Population Mitochondria Different-Phenotype (%) value has been reported for CCNC1(C(N)=O)CCN(c2ncnc3c2nc(-c2ccccc2Cl)n3-c2ccc(Cl)cc2)CC1 [OTENABANT] ?
66

Subsequent entry: CNC[C@H](O)c1ccc(O)c(O)c1 [EPINEPHRINE]
13
